Ref: the supplement of paper PMC11061612

tested on: NCI-H2066 (Squamous Cell Lung Carcinoma); assay: combination Emax (second highest fraction inhibited in the dose matrix, 72 h); higher = more inhibition; extreme values may be limits of the assay
Think of 0.5 as a floor: if combination Emax stands on it or above, it is True; beneath it, False.

COc1nnc2ccc(N3CCC(c4ccc(OCCN5CCN(C)C(=O)[C@H]5C)cc4)CC3)nn12 [AZD5153] + C=CCn1c(=O)c2cnc(Nc3ccc(N4CCN(C)CC4)cc3)nc2n1-c1cccc(C(C)(C)O)n1 [AZD1775] (first compound max 1 µM, partner max 1 µM) ... False
CC1(C)CCC(CN2CCN(c3ccc(C(=O)NS(=O)(=O)c4ccc(NCC5CCOCC5)c([N+](=O)[O-])c4)c(Oc4cnc5[nH]ccc5c4)c3)CC2)=C(c2ccc(Cl)cc2)C1 [Venetoclax] + CS(=O)(=O)CCNCc1ccc(-c2ccc3ncnc(Nc4ccc(OCc5cccc(F)c5)c(Cl)c4)c3c2)o1 [Lapatinib] (first compound max 1 µM, 7x7, partner max 10 µM) ... False
COc1nnc2ccc(N3CCC(c4ccc(OCCN5CCN(C)C(=O)[C@H]5C)cc4)CC3)nn12 [AZD5153] + Cn1cnc2c(F)c(Nc3ccc(Br)cc3Cl)c(C(=O)NOCCO)cc21 [Selumetinib] (first compound max 1 µM, 7x7, partner max 10 µM) ... False
COc1cc2c(cc1OCCCCCOc1cc3c(cc1OC)C(=O)N1C=C(C)C[C@H]1C=N3)N=C[C@@H]1CC(C)=CN1C2=O [SG3199] + O=C(c1cc(Cc2n[nH]c(=O)c3ccccc23)ccc1F)N1CCN(C(=O)C2CC2)CC1 [Olaparib] (first compound max 0.001 µM, 7x7, partner max 10 µM) ... False
COc1cc2ncnc(Nc3ccc(F)c(Cl)c3)c2cc1OCCCN1CCOCC1 [Gefitinib] + CC(C)n1c(=O)n(C)c2cnc3cc(F)c(-c4ccc(OCCCN5CCCCC5)nc4)cc3c21 [AZD1390] (first compound max 10 µM, 7x7, partner max 0.3 µM) ... False

Confirm if combination Emax reported for the compound CN(CCO)CC[C@H](CSc1ccccc1)Nc1ccc(S(=O)(=O)NC(=O)c2ccc(N3CCC([C@@H](O)c4ccccc4-c4ccc(Cl)cc4)CC3)cc2)cc1S(=O)(=O)C(F)(F)F [AZD4320] + CS(=O)(=O)CCNCc1ccc(-c2ccc3ncnc(Nc4ccc(OCc5cccc(F)c5)c(Cl)c4)c3c2)o1 [Lapatinib] (first compound max 1 µM, 7x7, partner max 10 µM) is 0.5 or above. True

Entry to check: CS(=O)(=O)CCNCc1ccc(-c2ccc3ncnc(Nc4ccc(OCc5cccc(F)c5)c(Cl)c4)c3c2)o1 [Lapatinib] + NC1(c2ccc(-c3nc4ccn5c(=O)[nH]nc5c4cc3-c3ccccc3)cc2)CCC1 [MK-2206] (first compound max 10 µM, 7x7, partner max 10 µM) True
